Assay: NCI Yeast Anticancer Drug Screen. Data for the mlh1 strain (AID 171);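 note: 0% = growth of vehicle-treated control cultures of the same strain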
Details: S. cerevisiae mlh1 strain growth inhibition; at 1.2 µM; stronger effect = higher value
Compounds without any hit were thinned out: in the full panel of roughly 79,000, 15% have a hit.
A collection of molecules and their measured growth inhibition
Enter your answer as a number in %; do not include the unit.

MOLECULE: CCOC(=O)COc1c(OC)cc(C2C3=C(COC3=O)Oc3cc4c(cc32)OCO4)cc1OC (configuration not stated)
growth inhibition [%]: 1

Quick one: growth inhibition for CC12C(=O)OC(=O)C(c3ccccc31)c1ccccc12 ? -11

C[C@@](O)(/C=C/[C@H]1CC=CC(=O)O1)[C@@H](C[C@@H](O)\C=C/C=C\C=C\CO)OP(=O)(O)O ? 21

----------
Experiment: NCI Yeast Anticancer Drug Screen. Data for the rad18 strain (AID 177)
Settings: S. cerevisiae rad18 mutant growth inhibition; at 1.2 µM; stronger effect = higher value
The panel holds about 79,000 compounds, 15% with a hit somewhere; the sample as a whole holds those more often.
// reported growth inhibition per item
Field: numeric (%). Do not append units.

SMILES_CODE: CCOC(=O)c1[nH]n(-c2ccccc2)c(=O)c1C=NC(=S)C(N)=S
ENDPOINT_UNIT: %
growth inhibition: 0

SMILES_CODE: COc1ccc(/C=C2\NC(=S)N(/C=C3\C(=O)Oc4ccccc4C3=O)C2=O)cc1
ENDPOINT_UNIT: %
growth inhibition: -3

SMILES_CODE: CCN(CC)CCOc1cc(C)c2cc(Cc3ccccc3)ccc2n1
ENDPOINT_UNIT: %
growth inhibition: 3

SMILES_CODE: CCOC(=O)C(C(=O)OCC)=P(c1ccccc1)(c1ccccc1)c1ccccc1
ENDPOINT_UNIT: %
growth inhibition: 1

Please look at the following compound next.
State the recorded growth inhibition for this entry: O=C1CC(=O)c2ccccc21 -1

----------
Below, each entry is listed with its recorded growth inhibition.
Test: NCI Yeast Anticancer Drug Screen. Data for the mlh1 strain (AID 171);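 note: 0% = growth of vehicle-treated control cultures of the same strain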
Conditions: S. cerevisiae mlh1 strain growth inhibition; at 1.2 µM; stronger effect = higher value
This is part of a sample that, as a whole, favours compounds with a hit. Of some 79,000 tested, about 15% had one in any assay.
# value in %; strip the unit string

COMPOUND: O=C(NNc1ccccc1)c1ccc(Cl)c(Cl)c1
growth inhibition (%): -2
--
COMPOUND: O=C1C(=O)c2ccccc2C(O)=C1C(C1=C(O)c2ccccc2C(=O)C1=O)c1ccc(Cl)cc1
growth inhibition (%): 6
--
COMPOUND: Oc1[nH]c2ccccc2c1N=NC(=S)N1CCCCC1
growth inhibition (%): 4

Now look at this one.
Consider the compound Cc1c2cc[n+](Cc3ccc(I)cc3)cc2c(C)c2c1[nH]c1ccccc12 and give its measured growth inhibition. 35

----------
Entries and their growth inhibition values follow.
Assay: NCI Yeast Anticancer Drug Screen. Data for the mec2-1 strain (AID 157)
Settings: S. cerevisiae mec2-1 strain, at 5.0 µM (retest, dose inferred, filed as 0.5), stronger effect = higher value
This is part of a sample that, as a whole, favours compounds with a hit. Of some 79,000 tested, about 15% had one in any assay.
Form entry: value (%) — number only.

Examples with answers:
MOLECULE: c1ccc2[nH]c(-c3cscn3)nc2c1
QUANTITY_KIND: growth inhibition
ENDPOINT_UNIT: %
QUANTITATIVE_RESULT: -12

MOLECULE: Cc1nc(Nc2ccccc2[N+](=O)[O-])sc1C(=O)CC(=O)C(=O)Nc1c(C(C)C)cccc1C(C)C
QUANTITY_KIND: growth inhibition
ENDPOINT_UNIT: %
QUANTITATIVE_RESULT: 3

MOLECULE: CCCCCCCCCCCCCCCCOP(=O)(O)OCC(N)C(=O)O (stereo not given)
QUANTITY_KIND: growth inhibition
ENDPOINT_UNIT: %
QUANTITATIVE_RESULT: 12

MOLECULE: c1ccc(-c2cnc3ccccc3c2)cc1
QUANTITY_KIND: growth inhibition
ENDPOINT_UNIT: %
QUANTITATIVE_RESULT: -52

Recorded growth inhibition for OCC(CO)C(c1cccc2ccccc12)c1cccc2ccccc12 , please? 4

Further, for CC1=C(C(=O)NCc2ccccc2)C(c2ccccc2)C(C(=O)NCc2ccccc2)=C(C)N1 ? 11
